# Method Summary: qHTS for Inhibitors of human tyrosyl-DNA phosphodiesterase 1 (TDP1): qHTS in cells in presence of CPT; note: nearly all actives have a fitted effect of over 55% in size
# Study Conditions: chicken DT40 Tdp1-/-;hTDP1 cells + 20 nM CPT, ATP luminescence, 48 h; series mostly up to 46.2 µM
Among all 420,000 compounds or so, about 50,000 (12%) were called active. About 26% were inconclusive and are not listed. Calls come from the whole dose curve; as a rule, active = well fitted inhibition curve with a large enough effect; inconclusive = small, poorly fitted or top-dose-only effect; inactive = flat fitted curve, though single readings scatter. Many of the other results were omitted from the sample, so actives are more common in it than they were.
I would appreciate it if you answered using one of these outcomes: active, inactive

Past entries and their recorded results:
>  <Molecule>
Cc1cccc(C)c1NC(=O)C(c1cccc(F)c1)N1CCN(C)CC1 (centres undefined)

>  <Category Label>
inactive

$$$$
>  <Molecule>
Cc1ccccc1OCC(=O)Nc1ccc2c(c1)ncn2C

>  <Category Label>
inactive

$$$$
>  <Molecule>
CC1CCN(c2ccc3c(c2)S(=O)(=O)c2cc(C(=O)O)ccc2C3=O)CC1

>  <Category Label>
inactive

$$$$
>  <Molecule>
O=C(NC1CCCC1)C(c1ccccn1)N(C(=O)c1csnn1)C1CCCC1 (centres undefined)

>  <Category Label>
inactive

$$$$
>  <Molecule>
O=C(NC(c1ccccc1)c1ccccc1)N1CCN(CCO)CC1

>  <Category Label>
inactive

$$$$

Please indicate how the test categorized COc1ccc(CN2C(=O)CC(Cc3ccc(C)cc3)C2=O)cc1OC (centres undefined) .
inactive

Please indicate how the test categorized `O=Cc1cn(-c2ccccc2)nc1-c1ccccn1` .
inactive
